assay: Immunostimulant activity in Balb/c mouse B cells assessed as inhibition of LPS-induced cell proliferation at 10^-6 M after 48 hrs by MTT assay; type: functional
Quick rule: inhibition at 1 µM of at least 30% means T, below that means F.

Look over these answered cases.
>>> class_label("CCCOc1ccc(-n2nncc2COc2cc(C)c3c(c2C)[C@@H]2OC(=O)[C@@H](C)[C@@H]2CC3)cc1Cl")
"T"
>>> class_label("Cc1cc(OCc2cnnn2-c2ccc(-c3ccccc3)cc2)c(C)c2c1CC[C@H]1[C@H](C)C(=O)O[C@@H]21")
"F"
>>> class_label("Cc1cc(OCc2cnnn2-c2ccc(Br)c3ccccc23)c(C)c2c1CC[C@H]1[C@H](C)C(=O)O[C@@H]21")
"F"
>>> class_label("Cc1cc(OCc2cnnn2-c2ccc3ccccc3c2)c(C)c2c1CC[C@H]1[C@H](C)C(=O)O[C@@H]21")
"F"
>>> class_label("Cc1cc(OCc2cnnn2-c2ccc(Cl)nc2)c(C)c2c1CC[C@H]1[C@H](C)C(=O)O[C@@H]21")
"T"
>>> class_label("Cc1cc(OCc2cnnn2-c2ccc(Br)cc2)c(C)c2c1CC[C@H]1[C@H](C)C(=O)O[C@@H]21")
"F"

Here is the next item to consider.
Task: Evaluate COc1ccc(-n2nncc2COc2cc(C)c3c(c2C)[C@@H]2OC(=O)[C@@H](C)[C@@H]2CC3)cc1OC : inhibition at 1 µM at minimum 30%?
Result: F

---

test: Cytotoxicity against in Balb/c mouse B cells at 10^-6 M after 48 hrs by MTT assay; type: cell-based; conditions: 1 µM
ENDPOINT: Activity

Solved entries:
>>> value("Cc1cc(OCc2cnnn2-c2ccc3ccccc3c2)c(C)c2c1CC[C@H]1[C@H](C)C(=O)O[C@@H]21")
"Non-toxic"
>>> value("Cc1cc(OCc2cnnn2-c2cccc(C(N)=O)c2)c(C)c2c1CC[C@H]1[C@H](C)C(=O)O[C@@H]21")
"Non-toxic"
>>> value("C#CCOc1cc(C)c2c(c1C)[C@@H]1OC(=O)[C@@H](C)[C@@H]1CC2")
"Toxic"
>>> value("Cc1cc(O)c(C)c2c1CC[C@H]1[C@H](C)C(=O)O[C@@H]21")
"Non-toxic"
>>> value("Cc1cc(OCc2cnnn2-c2cccc(O)c2)c(C)c2c1CC[C@H]1[C@H](C)C(=O)O[C@@H]21")
"Toxic"

# context switch: different compound, same Activity
Task: Tell us which Activity value is on record for Cc1cc(OCc2cnnn2-c2ccc(Br)cc2)c(C)c2c1CC[C@H]1[C@H](C)C(=O)O[C@@H]21
Result: Non-toxic

---

test: Cytotoxicity against in Balb/c mouse T cells at 10^-5 M after 48 hrs by MTT assay; format: cell-based; conditions: t-cell, 10 µM
ENDPOINT: Activity

>>> value("Cc1cc(OCc2cnnn2/C=C/c2ccccc2)c(C)c2c1CC[C@H]1[C@H](C)C(=O)O[C@@H]21")
"Non-toxic"
>>> value("Cc1ccc(I)cc1-n1nncc1COc1cc(C)c2c(c1C)[C@@H]1OC(=O)[C@@H](C)[C@@H]1CC2")
"Non-toxic"
>>> value("Cc1cc(OCc2cnnn2-c2ccc(Cl)nc2)c(C)c2c1CC[C@H]1[C@H](C)C(=O)O[C@@H]21")
"Non-toxic"
>>> value("Cc1cc(OCc2cnnn2-c2ccccc2)c(C)c2c1CC[C@H]1[C@H](C)C(=O)O[C@@H]21")
"Toxic"

Task: Tell us which Activity value is on record for Cc1cc(OCc2cnnn2-c2cccc(I)c2)c(C)c2c1CC[C@H]1[C@H](C)C(=O)O[C@@H]21
Result: Non-toxic

---

experiment: Cytotoxicity against in Balb/c mouse B cells at 10^-4 M after 48 hrs by MTT assay; type: cell-based; conditions: 100 µM
ENDPOINT: Activity

Solved entries:
>>> value("Cc1cc(OCc2cnnn2-c2ccc(C=O)cc2)c(C)c2c1CC[C@H]1[C@H](C)C(=O)O[C@@H]21")
"Non-toxic"
>>> value("Cc1cc(OCc2cnnn2-c2ccc3c(c2)OCO3)c(C)c2c1CC[C@H]1[C@H](C)C(=O)O[C@@H]21")
"Non-toxic"
>>> value("C#CCOc1cc(C)c2c(c1C)[C@@H]1OC(=O)[C@@H](C)[C@@H]1CC2")
"Non-toxic"
>>> value("CC1=C2[C@H]3OC(=O)[C@@H](C)[C@@H]3CC[C@@]2(C)C=CC1=O")
"Non-toxic"
>>> value("Cc1cc(OCc2cnnn2-c2cc(F)ccc2I)c(C)c2c1CC[C@H]1[C@H](C)C(=O)O[C@@H]21")
"Toxic"

Task: Tell us which Activity value is on record for Cc1cc(OCc2cnnn2-c2ccc3ccccc3c2)c(C)c2c1CC[C@H]1[C@H](C)C(=O)O[C@@H]21
Result: Toxic

Task: Tell us which Activity value is on record for COc1ccc(F)c(-n2nncc2COc2cc(C)c3c(c2C)[C@@H]2OC(=O)[C@@H](C)[C@@H]2CC3)c1Br
Result: Toxic

Task: Tell us which Activity value is on record for Cc1cc(OCc2cnnn2-c2ccccc2C(F)(F)F)c(C)c2c1CC[C@H]1[C@H](C)C(=O)O[C@@H]21
Result: Non-toxic

Task: Tell us which Activity value is on record for Cc1cc(OCc2cnnn2-c2ccc(F)cc2)c(C)c2c1CC[C@H]1[C@H](C)C(=O)O[C@@H]21
Result: Non-toxic

Task: Tell us which Activity value is on record for Cc1cc(OCc2cnnn2-c2ccc(-c3ccccc3)cc2)c(C)c2c1CC[C@H]1[C@H](C)C(=O)O[C@@H]21
Result: Toxic

Task: Tell us which Activity value is on record for CC(=O)Nc1ccc(-n2nncc2COc2cc(C)c3c(c2C)[C@@H]2OC(=O)[C@@H](C)[C@@H]2CC3)cc1
Result: Toxic

Task: Tell us which Activity value is on record for Cc1cc(OCc2cnnn2-c2ccccc2)c(C)c2c1CC[C@H]1[C@H](C)C(=O)O[C@@H]21
Result: Toxic

Task: Tell us which Activity value is on record for Cc1cc(OCc2cnnn2-c2cccc([N+](=O)[O-])c2)c(C)c2c1CC[C@H]1[C@H](C)C(=O)O[C@@H]21
Result: Toxic

Task: Tell us which Activity value is on record for Cc1cc(O)c(C)c2c1CC[C@H]1[C@H](C)C(=O)O[C@@H]21
Result: Non-toxic

Task: Tell us which Activity value is on record for Cc1cc(OCc2cnnn2-c2ccc(Cl)nc2)c(C)c2c1CC[C@H]1[C@H](C)C(=O)O[C@@H]21
Result: Non-toxic

---

assay: Cytotoxicity against in Balb/c mouse T cells at 10^-5 M after 48 hrs by MTT assay; format: cell-based; details: t-cell, 10 µM
ENDPOINT: Activity

>>> value("Cc1cc(OCc2cnnn2-c2ccc(Br)cc2)c(C)c2c1CC[C@H]1[C@H](C)C(=O)O[C@@H]21")
"Non-toxic"
>>> value("Cc1cc(OCc2cnnn2-c2cc(F)ccc2I)c(C)c2c1CC[C@H]1[C@H](C)C(=O)O[C@@H]21")
"Non-toxic"
>>> value("COc1ccc(F)c(-n2nncc2COc2cc(C)c3c(c2C)[C@@H]2OC(=O)[C@@H](C)[C@@H]2CC3)c1Br")
"Toxic"
>>> value("Cc1cc(OCc2cnnn2-c2ccccc2C(F)(F)F)c(C)c2c1CC[C@H]1[C@H](C)C(=O)O[C@@H]21")
"Non-toxic"

---

test: Cytotoxicity against in Balb/c mouse T cells at 10^-6 M after 48 hrs by MTT assay; format: cell-based; conditions: t-cell, 1 µM
ENDPOINT: Activity

Solved entries:
>>> value("Cc1cc(OCc2cnnn2-c2cccc(C(N)=O)c2)c(C)c2c1CC[C@H]1[C@H](C)C(=O)O[C@@H]21")
"Non-toxic"
>>> value("Cc1cc(OCc2cnnn2-c2ccccc2)c(C)c2c1CC[C@H]1[C@H](C)C(=O)O[C@@H]21")
"Non-toxic"
>>> value("COc1ccc2cc(-n3nncc3COc3cc(C)c4c(c3C)[C@@H]3OC(=O)[C@@H](C)[C@@H]3CC4)ccc2c1")
"Non-toxic"
>>> value("Cc1cc(OCc2cnnn2-c2cccc(O)c2)c(C)c2c1CC[C@H]1[C@H](C)C(=O)O[C@@H]21")
"Toxic"
>>> value("CC1=C2[C@H]3OC(=O)[C@@H](C)[C@@H]3CC[C@@]2(C)C=CC1=O")
"Non-toxic"

Task: Tell us which Activity value is on record for C#CCOc1cc(C)c2c(c1C)[C@@H]1OC(=O)[C@@H](C)[C@@H]1CC2
Result: Toxic

Task: Tell us which Activity value is on record for Cc1cc(OCc2cnnn2-c2ccc(Br)c3ccccc23)c(C)c2c1CC[C@H]1[C@H](C)C(=O)O[C@@H]21
Result: Non-toxic

Task: Tell us which Activity value is on record for Cc1cc(OCc2cnnn2-c2cccc(I)c2)c(C)c2c1CC[C@H]1[C@H](C)C(=O)O[C@@H]21
Result: Non-toxic

Task: Tell us which Activity value is on record for Cc1cc(OCc2cnnn2-c2ccc(Br)cc2)c(C)c2c1CC[C@H]1[C@H](C)C(=O)O[C@@H]21
Result: Non-toxic
